# TEST SYSTEM: human Claudin 18.2 (CLDN18.2) (human, UniProt P56856-2 1-261)
# ASSAY NAME: cell-based or functional assay
MEASUREMENT NAME: ADCC EC50, NCI-N87-18.2 cells, FcR-TANK effectors (nM)
Answer in nM, number only, no unit symbol.

[
  {
    "BINDER": "reference antibody 175D10 (xi175D10) (antibody, human IgG1, kappa, V domains shown, Fc variant D356/L358; also called chimeric 175D10) VH: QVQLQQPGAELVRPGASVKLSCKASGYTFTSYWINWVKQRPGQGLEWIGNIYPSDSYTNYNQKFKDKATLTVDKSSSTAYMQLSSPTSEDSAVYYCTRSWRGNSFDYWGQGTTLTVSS VL: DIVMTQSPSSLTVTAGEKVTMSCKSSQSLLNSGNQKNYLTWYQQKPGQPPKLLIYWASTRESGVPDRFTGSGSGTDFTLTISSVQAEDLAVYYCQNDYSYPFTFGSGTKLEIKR",
    "UNIT": "nM",
    "RECORDED RESULT": 96.4
  }
]

Continue with the next binder.
Problem: Query: ADCC EC50, NCI-N87-18.2 cells, FcR-TANK effectors; subject: 282A12F3 (T62A) (antibody, human IgG1, kappa, V domains shown, chimeric human IgG1, PTM site removed; also called 282A12F3-VH-NSA (T62A); 282A12 (T62A)) VH: QVQLKESGPVLVQPSQTLSLTCTVAGFSLTSYNVYWVRQPPGKGLEWMGVIWNTGATRYNSALKSRLSISKDTSKSQVFLKMNSLQTEDTATYYCARDSAMPAIPFAYWGQGTLVTVSS VL: DIVMTQSPSSLAVSAGETVTINCKSSQSLFGSVRQKNYLAWYQQKPGQSPKLLIYLASTRESGVPDRFIGSGSGTDFTLTISSVQAEDLAKYYCQQYYDIPWTFGGGTKLELKR
Result: 73.2
